Assignment: determine reported reverse-splicing fitness for the given variants.
B1: Azoarcus group I ribozyme (parent)
chain: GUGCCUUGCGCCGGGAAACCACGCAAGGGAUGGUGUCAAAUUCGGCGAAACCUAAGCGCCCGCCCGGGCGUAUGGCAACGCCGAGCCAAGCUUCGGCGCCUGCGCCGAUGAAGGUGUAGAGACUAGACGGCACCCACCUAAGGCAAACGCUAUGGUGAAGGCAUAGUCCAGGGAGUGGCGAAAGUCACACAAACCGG

Variants of: B1
MEASUREMENT_NOTES: reverse-splicing fitness (ratio to wild type); higher = more active; in vitro selection; Mg2+ level not given
One number for each entry.

Worked cases, answers included:
INSERT INTO assay_data (mutant_id, result_value) VALUES
  ('C82A A111U A120C C150G', 0.00909),
  ('C82A A111G A120C A145U C150A U176C', 0.0198),
  ('C82G A111C A120G C150A C169G U176C', 0.025),
  ('C82G A111C A120G A145U C150G C169A U176A', 0.00957),
  ('A111U A120C A145G C150A C169A U176A', 0.0184),
  ('C82U A145C C169A U176C', 0.00633);

State the recorded reverse-splicing fitness for every item in the following list.
1. C82G A111G C150G C169U U176C
2. C82U A111C A145C C150U C169A

[0.0165, 0.00854]
